System: Escherichia coli TOP10;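 note: peptides expressed intracellularly from a pBAD plasmid library in pooled LB shake-flask culture, induced with 0.3% L-arabinose, DNA abundance read by NGS, three biological replicates, DESeq2 with apeglm shrinkage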
Assay: shrunken log2 fold change of peptide-encoding DNA abundance (4.5 h post-induction vs induction); higher = less antimicrobial activity (less host growth inhibition)
Conditions: time post-induction: 4.5 h; library: site-saturation at positions 5, 18, 19, 20
// shrunken log2 fold change lookup, one value per entry

Please review the entries below; each comes with its answer.
Q: Quick one: shrunken log2 fold change for `RRIRDRPPRLPRPRPRPDFDPRP` ?
A: 0.541

Q: I am curious: what shrunken log2 fold change value has been reported for `RRIRCRPPRLPRPRPRPMMMPRP` ?
A: 2.91

Q: What does the data say about its shrunken log2 fold change? Entry: `RRIRPRPPRLPRPRPRPWTNPRP`
A: -0.0167

Q: I'd like to know its shrunken log2 fold change. The sequence in question is `RRIRSRPPRLPRPRPRPCDNPRP`
A: -0.165

Q: Requested read-out: shrunken log2 fold change. Entry: `RRIRLRPPRLPRPRPRPISLPRP`
A: -0.36

***
Q: Fill in: shrunken log2 fold change of `RRIRKRPPRLPRPRPRPPDPPRP` is ___
A: 0.889

Q: If you can, please state the reported shrunken log2 fold change value of `RRIRCRPPRLPRPRPRPGPTPRP` .
A: 0.848

Q: Give the measured shrunken log2 fold change of `RRIRRRPPRLPRPRPRPYFFPRP` .
A: -0.0972
